Target: human TLR7 (Homo sapiens)
Construct: host or cells: HEK293 (HEK-Blue hTLR7)
Sequence (Q9NYK1 27-1049): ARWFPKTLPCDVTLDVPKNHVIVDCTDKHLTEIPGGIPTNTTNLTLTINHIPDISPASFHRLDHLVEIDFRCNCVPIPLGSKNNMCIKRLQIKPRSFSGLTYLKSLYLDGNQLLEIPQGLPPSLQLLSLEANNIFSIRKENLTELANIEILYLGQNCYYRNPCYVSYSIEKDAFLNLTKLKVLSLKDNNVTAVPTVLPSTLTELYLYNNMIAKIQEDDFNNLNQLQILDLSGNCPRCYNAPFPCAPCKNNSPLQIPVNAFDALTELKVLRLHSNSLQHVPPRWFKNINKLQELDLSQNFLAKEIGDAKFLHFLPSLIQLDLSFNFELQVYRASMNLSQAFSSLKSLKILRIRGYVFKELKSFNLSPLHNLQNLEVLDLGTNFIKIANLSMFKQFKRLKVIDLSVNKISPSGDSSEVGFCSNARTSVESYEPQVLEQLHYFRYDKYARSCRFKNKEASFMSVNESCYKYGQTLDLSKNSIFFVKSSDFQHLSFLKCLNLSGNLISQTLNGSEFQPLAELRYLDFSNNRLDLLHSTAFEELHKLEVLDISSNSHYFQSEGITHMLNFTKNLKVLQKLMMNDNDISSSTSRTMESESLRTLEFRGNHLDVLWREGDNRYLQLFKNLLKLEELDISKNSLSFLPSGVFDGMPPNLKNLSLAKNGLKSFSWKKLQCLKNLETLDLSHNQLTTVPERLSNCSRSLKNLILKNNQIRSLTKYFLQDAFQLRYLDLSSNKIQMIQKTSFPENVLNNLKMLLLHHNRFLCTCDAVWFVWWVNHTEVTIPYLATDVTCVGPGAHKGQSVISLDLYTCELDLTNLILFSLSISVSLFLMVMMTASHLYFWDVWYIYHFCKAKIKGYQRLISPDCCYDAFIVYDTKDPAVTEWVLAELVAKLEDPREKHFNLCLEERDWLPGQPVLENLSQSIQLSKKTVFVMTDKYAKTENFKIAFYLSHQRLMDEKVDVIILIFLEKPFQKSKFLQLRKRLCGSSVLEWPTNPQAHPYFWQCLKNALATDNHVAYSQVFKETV
Assay: HEK293-Blue hTLR7 Reporter Assay (QUANTI-BLUE, SEAP readout)
Format: cell-based
Conditions: HEK-Blue-hTLR7 cells, 24 hrs treatment, Table 1, B1-B232
Attribute: EC50

Below: 5 molecules and their reported EC50.
CCCC(CCC)Oc1nc(N)c2ncc(Cc3cnc(N4CCN(C(=O)CNC)CC4)c(C)c3)n2n1; 3.9 nM
CCCCOc1nc(N)c2ncc(Cc3ccc(N4CCNCC4)cn3)n2n1; 1440 nM
CC[C@H](C)Oc1nc(N)c2ncc(Cc3cnc(N4CCN(C(=O)CN(C)C)CC4)c(C)c3)n2n1; 8 nM
CCC[C@@H](C)Oc1nc(N)c2ncc(Cc3cnc(N4CCN(C(=O)CN(C)C)CC4)c(C)c3)n2n1; 51 nM
CCCCOc1nc(N)c2ncc(Cc3cnc(N4CCC(N5CCOCC5)CC4)c(C)c3)n2n1; 159 nM

Please examine the following record next.
Req: // query EC50 value for entry `CC[C@H](C)Oc1nc(N)c2ncc(Cc3cnc(N4CCN(C(=O)CNC)CC4)c(C)c3)n2n1`
Resp: 10 nM

* * *

Biological target: human TLR7 (Homo sapiens, UniProt Q9NYK1)
Construct: host or cells: HEK293 (HEK-Blue hTLR7)
Sequence (Q9NYK1 27-1049): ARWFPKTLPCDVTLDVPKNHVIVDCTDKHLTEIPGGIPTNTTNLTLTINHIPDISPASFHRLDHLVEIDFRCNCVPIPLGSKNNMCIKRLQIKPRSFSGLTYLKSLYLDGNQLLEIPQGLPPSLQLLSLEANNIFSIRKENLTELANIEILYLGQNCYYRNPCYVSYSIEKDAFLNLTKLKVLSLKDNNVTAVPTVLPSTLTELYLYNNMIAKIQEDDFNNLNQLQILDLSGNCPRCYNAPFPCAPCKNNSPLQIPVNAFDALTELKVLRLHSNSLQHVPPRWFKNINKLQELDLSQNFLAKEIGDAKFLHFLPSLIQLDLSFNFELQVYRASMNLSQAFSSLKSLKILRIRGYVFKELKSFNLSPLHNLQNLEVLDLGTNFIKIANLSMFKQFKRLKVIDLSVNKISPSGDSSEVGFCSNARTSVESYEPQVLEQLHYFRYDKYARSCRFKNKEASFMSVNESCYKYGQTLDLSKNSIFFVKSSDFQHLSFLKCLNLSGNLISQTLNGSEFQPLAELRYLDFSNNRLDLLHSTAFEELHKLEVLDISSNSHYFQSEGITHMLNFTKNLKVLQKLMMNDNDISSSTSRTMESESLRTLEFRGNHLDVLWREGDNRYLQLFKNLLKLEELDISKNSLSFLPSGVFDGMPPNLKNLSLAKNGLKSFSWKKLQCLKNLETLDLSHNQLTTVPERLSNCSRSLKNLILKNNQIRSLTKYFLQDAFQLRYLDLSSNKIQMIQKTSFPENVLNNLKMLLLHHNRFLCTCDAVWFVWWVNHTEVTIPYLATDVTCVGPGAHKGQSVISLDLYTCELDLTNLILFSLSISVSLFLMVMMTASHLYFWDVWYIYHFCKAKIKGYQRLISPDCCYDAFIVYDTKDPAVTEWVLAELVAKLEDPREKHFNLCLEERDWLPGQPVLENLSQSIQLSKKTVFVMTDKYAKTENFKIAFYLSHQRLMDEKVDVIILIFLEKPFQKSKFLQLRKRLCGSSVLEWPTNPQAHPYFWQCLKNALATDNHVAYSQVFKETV
Experiment: HEK293-Blue hTLR7 Reporter Assay (QUANTI-BLUE, SEAP readout)
Assay type: cell-based
Settings: HEK-Blue-hTLR7 cells, 24 hrs treatment, Table 1, B1-B232
assay.metric: EC50

Req: Look up EC50 with human TLR7 (Homo sapiens, UniProt Q9NYK1) for this molecule: `CCC[C@@H](C)Oc1nc(N)c2ncc(Cc3cnc(N4CCC(N(C)C)CC4)c(C)c3)n2n1`
Resp: 0.056 µM

Req: Look up EC50 with human TLR7 (Homo sapiens, UniProt Q9NYK1) for this molecule: CCCC(CC)Oc1nc(N)c2ncc(Cc3cnc(N4CCNCC4)c(C)c3)n2n1 (stereo not shown)
Resp: 0.0087 µM

Req: Look up EC50 with human TLR7 (Homo sapiens, UniProt Q9NYK1) for this molecule: CCCC(C)Nc1nc(N)c2ncc(Cc3cnc(N4CCNCC4)c(C)c3)n2n1 (stereo not shown)
Resp: 0.0025 µM

Req: Look up EC50 with human TLR7 (Homo sapiens, UniProt Q9NYK1) for this molecule: `CCCCOc1nc(N)c2ncc(Cc3cnc(N4CCC(CN(CC)CC)CC4)c(C)c3)n2n1`
Resp: 0.022 µM

Req: Look up EC50 with human TLR7 (Homo sapiens, UniProt Q9NYK1) for this molecule: CCC[C@H](C)Nc1nc(N)c2ncc(Cc3cnc(N4CCC(N(C)C)CC4)c(C)c3)n2n1 (single isomer, unassigned)
Resp: 0.0023 µM

Req: Look up EC50 with human TLR7 (Homo sapiens, UniProt Q9NYK1) for this molecule: `CCCCOc1nc(N)c2ncc(Cc3cnc(N4CCN(C(=O)[C@@H](N)Cc5ccccc5)CC4)c(C)c3)n2n1`
Resp: 4.44 µM
